- System: PPARg:RXRa 90nM:30nM, anti-RXR (NR concentration 90 nM, RXRa partner concentration 30 nM)
- ASSAY_EXPLANATION: PBM binding z-score (relative to random genomic background probes); higher = stronger binding; sequences stand for … in GC…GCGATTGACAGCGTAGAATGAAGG
METRIC: PBM binding z-score

I am curious: what PBM binding z-score value has been reported for "TCTGCTAGGTCAGTTCGTCAGCTAACGAGCTGCC" ?
1.51

Now the same for "CGTCAAAGTTCAACTCAGGTAACGTAAAGCACGC"
4.01

Now the same for "TCTAGCAGGCCAGAGGCTCACTCAAGAGGTACGG"
1.21

Now the same for "ATCTCTAGGTAAAGATAGTCCAGTGAATGCAAAT"
0.0539

Now the same for "TGAATGTGGTTATAAGATCAGGGAACGTTGCAAA"
1.15

Now the same for "CGTCAAAGTTCCAGGTAACGTAACAGAAAGCAGC"
0.0621

Now the same for "GTACCAAGGTGAATAGGTCGTTGCTGAGTAGGCG"
1.18

Now the same for "CTACCAAGGTGAACAAGGTCGTTCATTACTATTC"
0.958

Now the same for "CCTGCTAGGTCAATGGTCTGCTAAAGCAGCTCGC"
1.83

Now the same for "ACTCTTAGTTGAGACGAGGGCAACCGATAGGTTG"
-0.0252

Now the same for "TCGAGTAGGTTAGTGGGGGCATTCAGCCAACATA"
2.53

====

- Tested on: RARb:RXRa (NR concentration 270 nM, RXRa partner concentration 90 nM)
- ASSAY_EXPLANATION: PBM binding z-score (relative to random genomic background probes); higher = stronger binding; sequences stand for … in GC…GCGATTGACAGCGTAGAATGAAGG
METRIC: PBM binding z-score

I am curious: what PBM binding z-score value has been reported for "GCTAGTTGGTCAGTAAAAGGTCGCACACCGGTCG" ?
2.34

Now the same for "CATACAGGGTCAGCTAGTCCAGAGTAGGGACGGC"
3.94

Now the same for "GCTCGTAGGACAAGGTCAGAGCTTTGTCCGTAGA"
3.16

Now the same for "TTACCCAGGTGAAAGGTCGTTGATGCACGCCTTG"
2.46

====

- System: PPARg DBDmut:RXRa IVT, anti-PPARg (DBD mutation: PPARg1 K132A/R137A, NR concentration 270 nM, RXRa partner concentration 90 nM)
- ASSAY_EXPLANATION: PBM binding z-score (relative to random genomic background probes); higher = stronger binding; sequences stand for … in GC…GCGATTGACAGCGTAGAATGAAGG
Task for the reader: assign each of the following sequences its reported PBM binding z-score.
Give the figure only, with no unit attached.

I am curious: what PBM binding z-score value has been reported for "AGATGTAGGTTACATCCGGGTCATTCAGGCTATG" ?
0.707

Now the same for "TCTTGTAGATCAACAGGAGGTTAACAAAGATCGA"
0.689

Now the same for "AGAAGGAGGTTACCAAAGATCAGGGAAACGCTTG"
0.699

Now the same for "GCTGCTAGGTCAAATGATGGTCAGCTAAAGCTCG"
-0.0492

====

- System: LXRa:RXRa (NR concentration 270 nM, RXRa partner concentration 90 nM)
- ASSAY_EXPLANATION: PBM binding z-score (relative to random genomic background probes); higher = stronger binding; sequences stand for … in GC…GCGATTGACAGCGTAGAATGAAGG
METRIC: PBM binding z-score
Give the figure only, with no unit attached.

I am curious: what PBM binding z-score value has been reported for "TCAGACAGGTGAAGATAACTCAGGTACGCAGTCG" ?
0.897

Now the same for "CCAGACAGGTCAAAGGTAACTCAGTCTGGTACGC"
4.97

Now the same for "ATTACAGGGTCATCGTAGGCCAGAGTACGCACAG"
6.64

Now the same for "CCTACTGGGCCATCAGGTCATTAATATCAACGTT"
0.82

Now the same for "TCATAAAGGTAAAAGGTGAAAGTCGGTGTGGTAA"
2.59

Now the same for "ACTAGCAGGCCAAGTTTGAGTCACTCAAACAAAG"
-0.601

Now the same for "TCATATAGGGAAAGGTGAAAGTCGAACGATATGA"
1.31
